Molecular target: Human recombinant His-tagged PFKFB3 (Homo sapiens, UniProt Q16875)
Construct: His
Sequence (Q16875 whole entry): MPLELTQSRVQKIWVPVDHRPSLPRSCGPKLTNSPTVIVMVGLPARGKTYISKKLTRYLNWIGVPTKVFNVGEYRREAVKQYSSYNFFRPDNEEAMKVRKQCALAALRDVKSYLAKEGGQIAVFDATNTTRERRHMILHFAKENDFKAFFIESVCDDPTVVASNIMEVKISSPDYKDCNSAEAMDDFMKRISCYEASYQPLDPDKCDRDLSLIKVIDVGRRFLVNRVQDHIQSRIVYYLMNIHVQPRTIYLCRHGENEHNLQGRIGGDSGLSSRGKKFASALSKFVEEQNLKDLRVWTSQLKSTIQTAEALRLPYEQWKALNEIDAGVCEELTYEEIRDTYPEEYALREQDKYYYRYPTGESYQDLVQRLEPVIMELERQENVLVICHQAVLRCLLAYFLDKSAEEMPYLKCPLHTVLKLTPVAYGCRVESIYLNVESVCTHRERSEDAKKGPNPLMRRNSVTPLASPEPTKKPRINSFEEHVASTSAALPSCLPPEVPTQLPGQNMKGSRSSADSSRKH
Experiment: PFKFB3 IC50 Determination Assay (in vitro kinase assay, modified ADP-Glo system)
Details: ATP 20 μM and fructose-6-phosphate 2 μM (Km), 25 nM PFKFB3, 2 h, rt, ADP-Glo luminescence
pIC50: −log10 of the molar value.
QUANTITY: pIC50

Some solved cases for reference:
What does the record list as pIC50 for CS(=O)(=O)c1ccncc1Nc1cc(-c2ccc3nc[nH]c3c2)c2nccnc2c1 [Example 61] ?
4.00 to 5.00

Now try Cn1ccc2ccc(-c3cc(Nc4cccnc4S(C)(=O)=O)cc4nccnc34)cc21 [Example 6] .
6.00 to 9.00

Others:
Need pIC50, item Cn1ccc2cc(-c3cc(Nc4cnccc4C(N)=O)cc4nccnc34)ccc21 [Example 29]
5.00 to 6.00

Another compound to check: CS(=O)(=O)c1ccccc1Nc1cc(-c2ccc3sc(N)nc3c2)c2nccnc2c1 [Example 190]
6.00 to 9.00

Likewise for Cn1ccc2ccc(-c3cc(Nc4cnccc4C(=O)NCc4cccnn4)cc4nccnc34)cc21 [Example 144] ?
6.00 to 9.00

Field entry: Cn1ccc2ccc(-c3cc(Nc4ccc[nH]c4=O)cc4nccnc34)cc21 [Example 14]
6.00 to 9.00

---

Molecular target: Human recombinant His-tagged PFKFB3 (Homo sapiens)
Construct: His
Test: PFKFB3 IC50 Determination Assay (in vitro kinase assay, modified ADP-Glo system)
Settings: ATP 20 μM and fructose-6-phosphate 2 μM (Km), 25 nM PFKFB3, 2 h, rt, ADP-Glo luminescence
QUANTITY: IC50

Below: 3 molecules and their reported IC50.
Could you share which IC50 value was measured for COc1ccc(Cl)c(-c2cc(Nc3cnccc3S(C)(=O)=O)cc3nccnc23)c1 ?
1 to 10 µM

Same lookup for Cc1csc2ccc(-c3cc(Nc4ccccc4S(=O)(=O)NC4CCN(C)C4)cc4nccnc34)cc12 (stereo not shown) , please.
0.001 to 1 µM

Another molecule: CS(=O)(=O)c1ccncc1Nc1cc(-c2cccc(NC(=O)C3CCCN3)c2)c2nccnc2c1 (stereo not shown)
10 to 100 µM

---
Quick check: IC50 of CN(C)c1nc2cc(-c3cc(Nc4cnccc4S(C)(=O)=O)cc4nccnc34)ccc2s1 ?
10 to 100 µM

---

Molecular target: Human recombinant His-tagged PFKFB3 (Homo sapiens)
Construct: His
Experiment: PFKFB3 IC50 Determination Assay (in vitro kinase assay, modified ADP-Glo system)
Details: ATP 20 μM and fructose-6-phosphate 2 μM (Km), 25 nM PFKFB3, 2 h, rt, ADP-Glo luminescence
pIC50: −log10 of the molar value. Counter-ions that a name gives are not always drawn.
QUANTITY: pIC50

Please review the entries below; each comes with its answer.
Fill in the blank: the reported pIC50 of CCc1cccc(-c2cc(Nc3cnccc3S(C)(=O)=O)cc3nccnc23)c1 [Example 65] is ____.
5.00 to 6.00

Entry to check: CC(=O)N1CC(NC(=O)c2ccncc2Nc2cc(-c3ccc4scc(C)c4c3)c3nccnc3c2)C1 [Example 206]
6.00 to 9.00

Entry Cn1ccc2ccc(-c3cc(Nc4ccccc4S(=O)(=O)N4CCNCC4)cc4nccnc34)cc21 [Example 15, trifluoroacetate] please
5.00 to 6.00

Do the same for CN(c1cc(-c2ccc3ccn(C)c3c2)c2nccnc2c1)c1cnccc1C#N [Example 91] please
5.00 to 6.00

Next up: CNc1ccc(S(C)(=O)=O)c(Nc2cc(-c3ccc4ccn(C)c4c3)c3nccnc3c2)c1 [Example 57]
6.00 to 9.00

Another molecule to check: Cn1ccc2ccc(-c3cc(Nc4cnccc4-c4nn[nH]n4)cc4nccnc34)cc21 [Example 68]
6.00 to 9.00

For Cc1coc2ccc(-c3cc(Nc4cc(N)ccc4S(C)(=O)=O)cc4nccnc34)cc12 [Example 102] then?
6.00 to 9.00

Okay, now this molecule:
Returns the measured pIC50 for the input molecule. Input: Cn1ccc2ccc(-c3cc(Nc4cc(Br)ccc4S(C)(=O)=O)cc4nccnc34)cc21 [Example 10]
6.00 to 9.00

---

Biological target: Human recombinant His-tagged PFKFB3 (Homo sapiens)
Construct: His
Experiment: PFKFB3 IC50 Determination Assay (in vitro kinase assay, modified ADP-Glo system)
Details: ATP 20 μM and fructose-6-phosphate 2 μM (Km), 25 nM PFKFB3, 2 h, rt, ADP-Glo luminescence
QUANTITY: IC50

In the examples that follow, each entry is paired with its recorded IC50.
Which IC50 value is on record for Cn1nnc2ccc(-c3cc(Nc4cnccc4S(C)(=O)=O)cc4nccnc34)cc21 ?
10 to 100 µM

# iterate: Cn1ccc2ccc(-c3cc(Nc4ncncc4Br)cc4nccnc34)cc21
10 to 100 µM

Could you do the same for Cn1ccc2ccc(-c3cc(Nc4ccccc4C(=O)O)cc4nccnc34)cc21 , please?
0.001 to 1 µM

Likewise for CCc1cc(CC)cc(-c2cc(Nc3cnccc3S(C)(=O)=O)cc3nccnc23)c1 ?
1 to 10 µM

***
What measured IC50 goes with Cn1ccc2ccc(-c3cc(Nc4cnccc4S(C)(=O)=O)cc4nccnc34)c(F)c21 ?
0.001 to 1 µM

---

Biological target: Human recombinant His-tagged PFKFB3 (Homo sapiens)
Construct: His
Test: PFKFB3 IC50 Determination Assay (in vitro kinase assay, modified ADP-Glo system)
Settings: ATP 20 μM and fructose-6-phosphate 2 μM (Km), 25 nM PFKFB3, 2 h, rt, ADP-Glo luminescence
QUANTITY: IC50

Sample records with IC50:
Consider the molecule shown here: CN1CCC(NC(=O)c2ccccc2Nc2cc(-c3ccc4ccn(C)c4c3)c3nccnc3c2)C1 (centres unmarked) What is its recorded IC50?
0.001 to 1 µM

Here is the next molecule: Cc1csc2ccc(-c3cc(Nc4ccccc4S(C)(=O)=O)cc4nccnc34)cc12
0.001 to 1 µM

Lookup CNc1nc2cc(-c3cc(Nc4cnccc4S(C)(=O)=O)cc4nccnc34)ccc2s1
1 to 10 µM

Now this one: CS(=O)(=O)c1ccncc1Nc1cc(-c2ccc(N)c(F)c2)c2nccnc2c1
0.001 to 1 µM

And for CC(=O)Nc1cc2cc(-c3cc(Nc4cnccc4S(C)(=O)=O)cc4nccnc34)ccc2s1 ?
1 to 10 µM

Moving on to the next molecule: Cn1ccc2cc(F)c(-c3cc(Nc4cnccc4S(C)(=O)=O)cc4nccnc34)cc21
0.001 to 1 µM

Proceed to Cn1ccc2cc(-c3cc(Nc4cc(CN)ccc4S(C)(=O)=O)cc4nccnc34)ccc21
10 to 100 µM

Another molecule: Cn1ccc2cc(-c3cc(Nc4cnccc4-c4cncnc4)cc4nccnc34)ccc21
10 to 100 µM

// same read-out, input: COc1ccc(C)c(-c2cc(Nc3cnccc3S(C)(=O)=O)cc3nccnc23)c1
1 to 10 µM

Same read-out for N#Cc1cnccc1Nc1cc(Cl)c2nccnc2c1 ?
10 to 100 µM

Lab note: next molecule to report on.
Need IC50, item Cn1ccc2ccc(-c3cc(Nc4cc(-c5ncco5)ccc4S(C)(=O)=O)cc4nccnc34)cc21
0.001 to 1 µM

---

# maps each entry to its IC50
Biological target: Human recombinant His-tagged PFKFB3 (Homo sapiens)
Construct: His
Assay: PFKFB3 IC50 Determination Assay (in vitro kinase assay, modified ADP-Glo system)
Conditions: ATP 20 μM and fructose-6-phosphate 2 μM (Km), 25 nM PFKFB3, 2 h, rt, ADP-Glo luminescence

Answered cases to consult:
Entry Cn1cc(-c2ccncc2Nc2cc(-c3ccc4c(ccn4C)c3)c3nccnc3c2)cn1 [Example 31] has what IC50?
10 to 100 µM

Query CN1CCN(c2ccncc2Nc2cc(-c3ccc4ccn(C)c4c3)c3nccnc3c2)CC1 [Example 40] next
0.001 to 1 µM

Next entry: Cc1coc2ccc(-c3cc(Nc4cnccc4C(N)=O)cc4nccnc34)cc12 [Example 26]
0.001 to 1 µM

Let us now turn to Cn1ccc2ccc(-c3cc(Nc4cnccc4C(=O)O)cc4nccnc34)cc21 [Example 179]
0.001 to 1 µM

Cn1ccc2cc(-c3cc(N4CCc5ccncc54)cc4nccnc34)ccc21 [Example 34] ?
10 to 100 µM

And then Cn1ccc2cc(-c3cc(Nc4cnccc4Cl)cc4nccnc34)ccc21 [Example 30] , what is it?
10 to 100 µM

More entries:
# query: IC50 of entry Cn1cnc(-c2ccncc2Nc2cc(-c3ccc4ccn(C)c4c3)c3nccnc3c2)c1 [Example 83]
0.001 to 1 µM

Query CN1CCN(c2ccc(S(C)(=O)=O)c(Nc3cc(-c4ccc5ccn(C)c5c4)c4nccnc4c3)c2)CC1 [Example 45] next
1 to 10 µM

Next compound up: CS(=O)(=O)c1ccncc1Nc1cc(-c2ccc3sncc3c2)c2nccnc2c1 [Example 161]
1 to 10 µM

Follow-up entry: Cn1ccc2ccc(-c3cc(Oc4cnccc4C(=O)O)cc4nccnc34)cc21 [Example 198]
10 to 100 µM

Now the same for CC(=O)Nc1ccc(S(C)(=O)=O)c(Nc2cc(-c3ccc4ccn(C)c4c3)c3nccnc3c2)c1 [Example 41]
1 to 10 µM

Hello, the source for this data is patent US20180118718A1, in case you need it.
